tested_system: Nuclear receptor subfamily 1 group I member 2 (Homo sapiens) (UniProt O75469)
assay_details: CYP3A4 induction through human pregnane X receptor (PXR) by small molecules, qHTS assay (AID 1346984); note: nearly all actives have a fitted effect of over 40% in size
condition_label: DPX-2 HepG2 PXR, CYP3A4-luciferin luminescence, 24 h; series mostly up to 46.1 µM
Results filed as inconclusive are left out. The source made the active and inactive calls. Calls come from the whole dose curve; as a rule, active = well fitted activation curve with a large enough effect in the repeat runs; inconclusive = weak or mixed curves; inactive = no such curve, though single readings can be large or run the other way. Non-standard residues stand in square brackets, D forms with d. Residues, ends and D or L forms follow the SMILES beside them. pGlu = O=C1CC[C@@H](C(=O)O)N1; Thz = O=C(O)[C@@H]1CSCN1
Valid outcomes are listed here; reply with one: 1.0 = active, 0.0 = inactive

Check out these entries, answers already filled in.
compound	category_label
O=[N+]([O-])c1c(Cl)cccc1-c1c[nH]cc1Cl	1.0
COC(=O)[C@@H](N)CS	0.0
CCCCCCCCCCCCCCCCCC(=O)OCC(C)O (stereo unspecified)	0.0
O=C(c1cc2ccccc2o1)N1CCN(Cc2ccccc2)CC1	0.0
C=C1CC[C@H](O)CC1=C/C=C1\CCC[C@]2(C)[C@@H]([C@H](C)CC[C@@H](O)C(C)(C)O)CC[C@@H]12	0.0
O=C(O)CC/C=C\CC[C@@H]1[C@@H](N2CCCCC2)[C@@H](O)C[C@@H]1OCc1ccc(-c2ccccc2)cc1	0.0
COc1cc(/C=C/C(=O)N2CCN(CC(=O)N3CCCC3)CC2)cc(OC)c1OC	0.0
COc1ccc(C(=O)CCC(=O)O)c2ccccc12	0.0

Exam item: Kindly provide the recorded test outcome for the following compound: CNC(C)CCC=C(C)C (stereo unspecified)
Marked response: 0.0

Exam item: GET /call?item= O=C1CC[C@@H](C(=O)N2CSC[C@H]2C(=O)O)N1 ([pGlu]-[Thz]-OH) returns the recorded outcome of this test.
Marked response: 0.0
